tested on: SF-268 CNS; experiment: NCI-60 one-dose screen, 48 h; conditions: 10 µM unless noted
Compounds without any hit were thinned out: in the full panel of roughly 83,000, 20% have a hit. Active and inactive are the calls of the source. Rule for the calls: active = growth percent below 10; inactive = the rest.
Outcome codes: t (active), f (inactive)

INSERT INTO results (compound, label) VALUES
  ('Cc1cc2cc3ccc(N(C)C)cc3nc2cc1N', 't'),
  ('Cc1ccc(S(=O)(=O)Nn2c3c(cc(-c4nc5ccccc5s4)c2=O)CCCCCC3)cc1', 'f'),
  ('Cn1c2ccccc2c2c3c(c4c5ccccc5n(C)c4c21)C(=O)OC3', 'f'),
  ('N#Cc1cc(-c2nc3ccccc3s2)c(=O)n(NS(=O)(=O)c2ccccc2)c1N', 'f'),
  ('Cn1ccnc1C(=O)/C=C/c1ccc(CC(=O)Nc2ccc(Cl)cc2)cc1', 't'),
  ('COc1ccc(C/C(C)=C(/c2ccc(OCCCN(C)C)cc2)c2ccc(OC(C)=O)cc2)cc1', 'f'),
  ('O=C(c1nc2ccccc2[nH]1)C1C(c2ccc(Br)cc2)C2CC3CCCC[C@H]3N2[C@@]12C(=O)Nc1cc(Cl)ccc12 (some centres not stated)', 'f'),
  ('CC1(C)c2[nH]c3ccccc3c2C[C@]2(C)[C@H]3C(=O)C=C4[C@@H]5C[C@@](C)(C(N)=O)CC[C@]5(C)CC[C@@]4(C)[C@]3(C)CC[C@@H]12', 'f'),
  ('O=C(O)c1ccc(NCc2cn(-c3ccc(C(F)(F)F)cc3)nc2-c2ccc(C(=O)O)cc2)cc1', 'f'),
  ('NC(=S)N1N=C(c2ccccc2)CC1c1cn(-c2ccccc2)nc1-c1ccc(OCc2ccccc2)cc1 (configuration not stated)', 'f'),
  ('COc1cc2nc(-c3ccc(Cl)cc3)cc(OCCCN3CCCC3)c2cc1OC', 'f'),
  ('COc1ccc(-c2nc3sccn3c2/C=C/C(=O)c2ccc3c(c2)OCO3)cc1', 'f'),
  ('Cc1ccc(S(=O)(=O)NNC(=O)/C(=C\c2ccc(Cl)cc2)c2nc3ccccc3s2)cc1', 'f'),
  ('O=C1c2ccc3c4c(ccc(c24)C(=O)N1CCCNCc1ccccc1)C(=O)N(CCCNCc1ccccc1)C3=O', 't'),
  ('ClC1=C(Br)C(Br)(Br)C(=C(Br)Br)C1(Br)Br', 'f'),
  ('Oc1c(Cl)cc(Cl)c(Cl)c1CNCCNCc1c(O)c(Cl)cc(Cl)c1Cl', 'f'),
  ('COc1cc2cc(Oc3cccc(NC(=O)Nc4cc(C(F)(F)F)cc(C(F)(F)F)c4)c3)c(C)nc2cc1OC', 'f'),
  ('CCCCOc1ccc(/C=N/Nc2cc(C)nc3ccc(Br)cc23)cc1', 'f'),
  ('CCCCCOc1ccc(/C=N/Nc2cc(C)nc3ccc(Cl)cc23)cc1', 'f'),
  ('O=C1/C=C/[C@@H](O)[C@@H]2C[C@@H](O)C[C@H]2/C=C/CCC[C@H](CCc2cccc3ccccc23)O1', 'f'),
  ('N#Cc1c(NC(=O)NCc2ccccc2)sc2c1CCCC2', 'f'),
  ('Cc1ccc(NC(C(=O)c2ccccc2)c2ccccc2)cc1 (configuration not stated)', 'f'),
  ('OCc1cnc2ccccc2c1NC1CCCCCC1', 'f'),
  ('COC(=O)c1ccc2c(c1)[n+](=O)c(C(C)=O)c(C(F)(F)F)n2[O-]', 't'),
  ('CCc1c2c(nc3ccc(OCc4ccc(B(O)O)cc4)cc13)-c1cc3c(c(=O)n1C2)COC(=O)[C@]3(O)CC', 't'),
  ('O=C(Nc1ccc(F)cc1)Nc1ccc(NC(=O)c2cc(Cl)nc3ccccc23)cc1', 'f'),
  ('c1ccc(-c2c(-c3ccccc3)[n+](Cc3ccc4ccccc4c3)c(-c3cccc4ccccc34)n2Cc2ccc3ccccc3c2)cc1', 't'),
  ('O=C(C[n+]1cccc2ccccc21)c1ccc(O)c(O)c1', 'f'),
  ('COc1cc2c(-c3cc4c(cc3CNCCc3ccc5c(c3)OCO5)OCO4)cccc2c(OC)c1O', 'f'),
  ('NC(=NCCCOc1ccc(F)cc1)Nc1ccc(I)cc1', 'f'),
  ('C[C@H]1[C@H](C)CC[C@]2(C(=O)Nc3ccc4ncccc4c3)CC[C@]3(C)C(=CC[C@@H]4[C@@]5(C)CCCNC(C)(C)[C@@H]5CC[C@]43C)[C@H]12', 't'),
  ('CC1(C)NCCC[C@]2(C)[C@H]3CC[C@@H]4[C@H]5[C@H](C(=O)/C=C/c6ccco6)CC[C@]5(CO)CC[C@@]4(C)[C@]3(C)CC[C@@H]12', 'f');

====

test system: HCT-116 colon; test: NCI-60 one-dose screen, 48 h; conditions: 10 µM unless noted
Compounds without any hit were thinned out: in the full panel of roughly 83,000, 20% have a hit. Active and inactive are the calls of the source. The calls were made as follows: active = growth percent below 10; inactive = the rest.
Outcome codes: 1 = active, -1 = inactive

INSERT INTO results (compound, target_of_assay, label) VALUES
  ('O=C(Nc1ncc(Cc2cc(Cl)ccc2Cl)s1)c1cccs1', 'HCT-116 colon', -1),
  ('CN(C)CCC(=O)c1ccc([N+](=O)[O-])cc1', 'HCT-116 colon', -1),
  ('C#CCNC(=O)c1cccc2c1cc(C)n2-c1nc2c(c(NCc3ccccc3)n1)CCCC2', 'HCT-116 colon', 1),
  ('COc1cc2cc(Oc3cccc(NC(=O)Nc4cc(C(F)(F)F)cc(C(F)(F)F)c4)c3)c(C)nc2cc1OC', 'HCT-116 colon', 1),
  ('N/C(=N\C(N)=N\c1nc2ccccc2s1)c1cccc(Cl)c1', 'HCT-116 colon', -1),
  ('COc1cc2c(=O)n(CCN(C)C)c3c4cc5c(cc4ccc3c2cc1OC)OCO5', 'HCT-116 colon', 1),
  ('O=C(CNCCN1CCOCC1)N1c2cccc3cccc(c23)N(C(=O)CNCCN2CCOCC2)C1c1cn(-c2ccccc2)nc1-c1cccc([N+](=O)[O-])c1', 'HCT-116 colon', -1),
  ('CC1=CCC(OC(=O)C(C)(O)CCC(O)(C(=O)OC2(C)C=CC(O)(C(C)C)CC2)C(C)C)(C(C)C)CC1 (stereo not drawn)', 'HCT-116 colon', -1),
  ('C#Cc1cccc(NC(=O)c2cccc(NC(=O)CCl)c2)c1', 'HCT-116 colon', 1),
  ('CC1(C)CC(=O)C2=C(C1)N(c1ccc(F)cc1F)C(N)=C(C#N)C2c1cc(Br)ccc1F (stereo not drawn)', 'HCT-116 colon', -1),
  ('CC1(C)CC(O)CCCCCCOc2c(CN)cccc2NC(=O)c2nc(cnc2N)-c2ccc(cc2)S1(=O)=O (stereo not drawn)', 'HCT-116 colon', 1),
  ('CN1C(N2CCN(S(=O)(=O)c3ccccc3)CC2)=NS(=O)(=O)c2ccccc21', 'HCT-116 colon', -1),
  ('N#C/C(=C\c1ccc([N+](=O)[O-])s1)c1nc2cc(Br)ccc2s1', 'HCT-116 colon', 1),
  ('O=C(O)c1ccc(-c2nn(-c3ccc(C(F)(F)F)cc3)cc2CNc2ccc(Oc3ccccc3)cc2)cc1', 'HCT-116 colon', -1),
  ('Cc1ncc(C(=O)Nc2ccc(CN3CCN(C)CC3)c(C(F)(F)F)c2)cc1C#Cc1cnc(N)cc1C#N', 'HCT-116 colon', 1),
  ('COc1ccc(C(C)=O)c(OC)c1', 'HCT-116 colon', -1),
  ('CCCCCCNC(=O)Nc1ccc2cc3ccc(NC(=O)NCCCCCC)cc3nc2c1', 'HCT-116 colon', 1),
  ('O=C(Cn1c[n+](CC(=O)c2ccc([N+](=O)[O-])cc2)c2ccccc21)Nc1cccc2cccnc12', 'HCT-116 colon', -1),
  ('OCc1cnc2ccccc2c1NC1CCCCCC1', 'HCT-116 colon', -1),
  ('C[C@H]1[C@H]2[C@H]3CC[C@@H]4[C@@]5(C)CC[C@H](O)C(C)(C)[C@@H]5CC[C@@]4(C)[C@]3(C)CC[C@]23CO[C@]1(C)[C@@H](C(=O)/C=C\c1ccco1)C3', 'HCT-116 colon', -1),
  ('Clc1ccc(-c2ccc(CNCC3CCNCC3)o2)c(-c2ccccc2)c1', 'HCT-116 colon', 1),
  ('O=C(Nc1ccc(F)cc1)Nc1ccc(NC(=O)c2cc(Cl)nc3ccccc23)cc1', 'HCT-116 colon', -1),
  ('COc1ccc(C(=O)NNc2nc(Cl)nc(N3CCN(C(c4ccccc4)c4ccccc4)CC3)n2)cc1', 'HCT-116 colon', 1);

====

tested on: A498 renal; experiment: NCI-60 one-dose screen, 48 h; conditions: 10 µM unless noted
This is part of a sample that, as a whole, favours compounds with a hit. Of some 83,000 tested, about 20% had one in any assay. Active and inactive are the calls of the source. How the source made its calls: active means growth percent below 10; inactive means the rest.
Outcome codes: active, inactive

INSERT INTO measurements (compound, target_of_assay, label) VALUES
  ('O=C(NNc1nc2c(F)cccc2n2cccc12)c1cnccn1', 'A498 renal', 'inactive'),
  ('CCOC(=O)c1cc(C(=O)c2ccc(OC)cc2)n2ccc(/C=C/c3cc[n+](CC(=O)c4ccc(OC)cc4)cc3)cc12', 'A498 renal', 'inactive'),
  ('CCOC(=O)c1cc(C(=O)c2ccc(OC)c(OC)c2)n2c1ccc1ccccc12', 'A498 renal', 'inactive'),
  ('NC(=O)CSSCC(N)=O', 'A498 renal', 'inactive'),
  ('COc1ccc(/C=C/c2nc(Nc3ccc(S(=O)(=O)Nc4nc(C)cc(C)n4)cc3)c3ccccc3n2)cc1', 'A498 renal', 'active'),
  ('N#C/C(=C\c1c(-c2ccccc2)[nH]c2ccccc12)C(=O)c1ccc(Cl)cc1', 'A498 renal', 'active'),
  ('COc1cc(C2=NN(C(C)=O)C(c3cc(OC)c(OC)c(OC)c3)C2)ccc1O (stereo unspecified)', 'A498 renal', 'active'),
  ('O=C1c2ccccc2CCC12OC2c1cn(-c2ccccc2)nc1-c1ccc(Cl)cc1 (stereo unspecified)', 'A498 renal', 'inactive'),
  ('COc1cc(/C=C\c2cc(OC)c(OC)c(OC)c2)cc(N)c1OC', 'A498 renal', 'inactive'),
  ('C#Cc1cccc(NC(=O)c2cccc(NC(=O)CCl)c2)c1', 'A498 renal', 'inactive'),
  ('CCN1Cc2nc3sc(C)c(C)c3c(=O)n2C=C1C', 'A498 renal', 'inactive'),
  ('Cn1ccc2c1CC1CN(Cc3ccco3)C(=O)C1C2C(=O)O (stereo unspecified)', 'A498 renal', 'inactive'),
  ('O=c1c2c(c(=O)n1O)c1c3ccc[nH]c3nc1c1nc3[nH]cccc3c12', 'A498 renal', 'inactive'),
  ('CCNc1nc2cc(Nc3ccnc4cc(Cl)ccc34)ccc2o1', 'A498 renal', 'inactive'),
  ('COc1cc2c3c(c4c5ccccc5[nH]c4c2c(OC)c1OC)C(=O)N(CCN1CCOCC1)C3=O', 'A498 renal', 'inactive'),
  ('O=C1c2cccc3c(-c4ccc5c(c4)ncn5C4CCCCC4)ccc(c23)C(=O)N1CCO', 'A498 renal', 'inactive');
